Source of measurements: patent US20220289837A1

measurement.target: T1, 3HA-F508del-CFTR (Homo sapiens, UniProt P13569, DEL508-508)
T1 construct: expressed in transfected cells
T1 sequence (P13569 with tags, fused parts or gaps DEL508-508): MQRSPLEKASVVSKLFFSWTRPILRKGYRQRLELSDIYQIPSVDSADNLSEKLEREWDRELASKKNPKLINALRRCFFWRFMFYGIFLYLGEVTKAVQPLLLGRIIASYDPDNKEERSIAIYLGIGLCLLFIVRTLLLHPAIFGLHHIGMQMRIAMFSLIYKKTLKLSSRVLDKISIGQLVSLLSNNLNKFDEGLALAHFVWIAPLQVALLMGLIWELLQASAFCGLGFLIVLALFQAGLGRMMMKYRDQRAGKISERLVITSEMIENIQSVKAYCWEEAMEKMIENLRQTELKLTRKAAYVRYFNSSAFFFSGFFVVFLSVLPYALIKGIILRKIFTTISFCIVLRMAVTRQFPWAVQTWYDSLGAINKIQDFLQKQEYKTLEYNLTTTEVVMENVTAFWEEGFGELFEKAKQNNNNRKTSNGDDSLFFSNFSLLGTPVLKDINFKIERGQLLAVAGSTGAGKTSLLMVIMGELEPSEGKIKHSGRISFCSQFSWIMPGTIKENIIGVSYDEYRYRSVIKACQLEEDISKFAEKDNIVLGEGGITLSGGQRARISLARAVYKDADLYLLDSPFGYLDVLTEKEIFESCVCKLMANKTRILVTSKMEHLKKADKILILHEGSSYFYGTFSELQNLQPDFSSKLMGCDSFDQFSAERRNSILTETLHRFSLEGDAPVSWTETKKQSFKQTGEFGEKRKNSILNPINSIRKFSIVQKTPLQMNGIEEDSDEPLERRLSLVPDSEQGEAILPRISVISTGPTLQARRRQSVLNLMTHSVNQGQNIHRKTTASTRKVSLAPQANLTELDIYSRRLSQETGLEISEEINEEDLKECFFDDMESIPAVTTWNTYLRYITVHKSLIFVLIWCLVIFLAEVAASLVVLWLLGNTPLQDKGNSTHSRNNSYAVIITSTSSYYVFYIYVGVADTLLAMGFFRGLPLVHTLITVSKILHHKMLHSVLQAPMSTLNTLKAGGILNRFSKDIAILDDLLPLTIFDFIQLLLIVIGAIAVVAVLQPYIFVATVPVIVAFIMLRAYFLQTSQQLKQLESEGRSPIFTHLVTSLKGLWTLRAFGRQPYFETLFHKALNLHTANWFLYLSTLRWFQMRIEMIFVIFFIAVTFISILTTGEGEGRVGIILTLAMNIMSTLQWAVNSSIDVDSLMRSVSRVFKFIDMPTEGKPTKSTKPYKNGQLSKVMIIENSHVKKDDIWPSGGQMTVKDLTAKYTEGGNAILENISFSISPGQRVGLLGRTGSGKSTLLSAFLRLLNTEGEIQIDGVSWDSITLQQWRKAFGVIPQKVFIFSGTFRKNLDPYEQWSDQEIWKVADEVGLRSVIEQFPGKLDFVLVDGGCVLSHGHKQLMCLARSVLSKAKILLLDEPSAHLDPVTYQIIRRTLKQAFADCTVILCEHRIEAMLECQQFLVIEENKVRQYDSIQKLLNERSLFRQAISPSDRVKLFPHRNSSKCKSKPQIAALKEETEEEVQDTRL
experiment.summary: Cell-surface expression of F508del-CFTR in HEK-293T cells by flow cytometry
Format: cell-based
run.conditions: extracellular 3HA-tag, Nb transfected and/or VX-809
assay.metric: cell-surface expression of F508del-CFTR

molecule="G3a: non-stabilizing nanobody, SEQ ID NO:50, recognizes the structurally diverse region of NBD1 (protein, G3a Nanobody) VHH: QVQLQESGGGLVQAGGSLRLSCTASGRAFSWYVMGWFRQAPGKEREFVATVSGNGSRRDYADSVKGRFTISRDNAKNTVYLQMNSLKPEDTAVYYCAASSTYYYTDPEKYDYWGQGTQVTVSS" result="No effect"
molecule="T8: nanobody, SEQ ID NO:7, binds epitope 2 including F508, stabilizes WT CFTR but not F508del (protein, T8 Nanobody amino acid sequence) VHH: QVQLQESGGGLVQPGGSLRLSCAASGSTSSINAMGWYRQAPGKQREPVAISSSGGDTRYAEPVKGRFTISRDNAQNKVYLQMNSLKPEDTAVYYCWLNWGRTSVNSWGQGTQVTVSS" result="No effect"
